Cited source: PubChem BioAssay (NCI)

# System: RXF 393 renal
# measurement.notes: NCI-60 one-dose screen, 48 h
# conditions: 10 µM unless noted
The panel holds about 83,000 compounds, 20% with a hit somewhere; the sample as a whole holds those more often. Calls of active or inactive are those of the source. Rule for the calls: active = growth percent below 10; inactive = the rest.
Labels: active, inactive

CCN(CC)c1ccc(C(=N)c2ccc(N(CC)CC)cc2)cc1	active
Oc1ccc(Cl)cc1-c1cc(-c2ccc(F)cc2)n[nH]1	inactive
C=C1CCC2C3(C)COC(C)(C)OC3CCC2(C)C1C/C=C1/C(=O)OCC1Oc1ccccc1OC (stereo unspecified)	inactive
COP(=O)(OC)/C(=N\NS(=O)(=O)c1ccc(C)cc1)c1ccccc1	inactive
O=C(O)C1CCCCN1c1nc(Cl)nc(Cl)n1 (stereo unspecified)	inactive
NC1=NN(O)C2=CC([N+](=O)[O-])C=CC2=N1 (stereo unspecified)	inactive
